- TESTED TARGET: MRGPRX4-83S (Homo sapiens, UniProt Q96LA9, L83S)
- Sequence (Q96LA9 whole entry L83S): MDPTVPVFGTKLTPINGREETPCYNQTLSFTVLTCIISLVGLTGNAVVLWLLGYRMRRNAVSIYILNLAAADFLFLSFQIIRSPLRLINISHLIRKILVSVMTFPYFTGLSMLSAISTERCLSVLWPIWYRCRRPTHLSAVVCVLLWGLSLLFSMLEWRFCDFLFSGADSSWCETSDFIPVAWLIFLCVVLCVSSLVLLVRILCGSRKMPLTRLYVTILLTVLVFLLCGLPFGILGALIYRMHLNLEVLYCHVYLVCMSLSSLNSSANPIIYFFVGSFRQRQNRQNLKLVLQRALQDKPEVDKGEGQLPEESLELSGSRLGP
- TEST DETAILS: Calcium assay (human glioblastoma LN229 cells expressing the MRGPRX4-83S)
- Format: cell-based
- Parameters: LN229 glioblastoma cells natively expressing the MRGPRX4-83S; endogenous in cells; host or cells: LN229 human glioblastoma cells
pIC50: −log10 of the molar value.
pIC50 vs 8: at or above is satisfied, below is not satisfied.

| LINE NOTATION | CLASSIFICATION |
| --- | --- |
| C#CCn1c(=O)c2c(nc(Cc3ccc4ccccc4c3)n2CC)n(CCCCP(=O)(O)O)c1=O | not satisfied |
| C#CCn1c(=O)c2c(nc(CCc3ccc(-c4ccccc4)cc3)n2CC2CCCC2)n(CCCCP(=O)(O)O)c1=O | satisfied |
| C#CCn1c(=O)c2c(nc(CCc3ccc(Br)cc3)n2CC2CCCC2)n(CCCCP(=O)(O)O)c1=O | satisfied |

====

- TESTED TARGET: MRGPRX4-83S (Homo sapiens, UniProt Q96LA9, L83S)
- TEST DETAILS: Calcium assay (human glioblastoma LN229 cells expressing the MRGPRX4-83S)
- Format: cell-based
- Design: LN229 glioblastoma cells natively expressing the MRGPRX4-83S; endogenous in cells; host or cells: LN229 human glioblastoma cells
- MEASUREMENT CONTEXT: LN-229; Table 3; efficacy based on 30 μM H-1 (set as 100%); read-out: Emax

| MOLECULE | Emax |
| --- | --- |
| C#CCn1c(=O)c2c(nc(CCc3ccccc3Br)n2CC2CCC2)n(CCCCP(=O)(O)O)c1=O | 97% |
| C#CCn1c(=O)c2c(nc(CCc3c(C)cccc3C)n2CC)n(CCCCP(=O)(O)O)c1=O | 113% |
| C#CCn1c(=O)c2c(nc(CCc3ccc(OC)cc3)n2CC2CCCC2)n(CCCCP(=O)(O)O)c1=O | 57% |
| C#CCn1c(=O)c2c(nc(CCc3ccc(C(F)(F)F)cc3)n2CC2CCCC2)n(CCCCP(=O)(O)O)c1=O | 8% |
| C#CCn1c(=O)c2c(nc(CCc3ccccc3Br)n2C(C)CC)n(CCCCP(=O)(O)O)c1=O (centres unmarked) | 119% |
| C#CCn1c(=O)c2c(nc(CCc3ccccc3F)n2C)n(CCCCP(=O)(O)O)c1=O | 92% |
| C#CCn1c(=O)c2c(nc(CCc3ccccc3C)n2C(C)C)n(CCCCP(=O)(O)O)c1=O | 154% |
| C#CCn1c(=O)c2c(nc(CCc3ccccc3C)n2CC)n(CCCCP(=O)(O)O)c1=O | 111% |
| C#CCn1c(=O)c2c(nc(CCc3ccccc3Br)n2C(C)C)n(CCCCP(=O)(O)O)c1=O | 109% |
| C#CCn1c(=O)c2c(nc(CCc3ccccc3Br)n2CC2CCCCC2)n(CCCCP(=O)(O)O)c1=O | 112% |
| C#CCn1c(=O)c2c(nc(CCc3ccccc3Br)n2CCN)n(CCCCP(=O)(O)O)c1=O | 107% |
| C#CCn1c(=O)c2c(nc(CCc3ccc(Br)cc3)n2CC2CCCC2)n(CCCCP(=O)(O)O)c1=O | 6% |
| C#CCn1c(=O)c2c(nc(CCc3ccc(I)cc3)n2CC2CCCC2)n(CCCCP(=O)(O)O)c1=O | 23% |
| C#CCn1c(=O)c2c(nc(CCc3c(Cl)cccc3Cl)n2CC)n(CCCCP(=O)(O)O)c1=O | 104% |

====

Emax: recorded values
- TESTED TARGET: human MRGPRX4-83L (Homo sapiens, UniProt Q96LA9)
- Construct: host or cells: CHO β-arrestin cells
- Sequence (Q96LA9 whole entry): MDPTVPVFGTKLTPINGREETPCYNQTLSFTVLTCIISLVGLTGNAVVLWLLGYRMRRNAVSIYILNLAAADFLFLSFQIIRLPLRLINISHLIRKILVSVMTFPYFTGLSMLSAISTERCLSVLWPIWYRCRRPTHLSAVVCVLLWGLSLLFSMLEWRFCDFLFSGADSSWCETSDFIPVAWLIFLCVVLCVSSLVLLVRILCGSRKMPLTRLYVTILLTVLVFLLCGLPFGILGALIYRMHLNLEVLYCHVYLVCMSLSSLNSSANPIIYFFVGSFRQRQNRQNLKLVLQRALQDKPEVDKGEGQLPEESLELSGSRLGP
- TEST DETAILS: β-arrestin assay (CHO β-arrestin ARMS1-ProLink 2 human MRGPRX4 83L)
- Type: cell-based
- MEASUREMENT CONTEXT: Table 4; efficacy based on maximal effect of 100 nM B-16 (set as 100%); read-out: Emax

| LINE NOTATION | TESTED TARGET | Emax, % |
| --- | --- | --- |
| C#CCn1c(=O)c2c(nc(CCc3ccccc3Br)n2CC)n(CCCCCP(=O)(O)O)c1=O | human MRGPRX4-83L (Homo sapiens, UniProt Q96LA9) | 96 |
| C#CCn1c(=O)c2c(nc(CCc3ccccc3Br)n2CC2CCCC2)n(CCCCP(=O)(O)O)c1=O | human MRGPRX4-83L (Homo sapiens, UniProt Q96LA9) | 87 |
| C#CCn1c(=O)c2c(nc(CCc3ccc(Br)cc3)n2C)n(CCCCP(=O)(O)O)c1=O | human MRGPRX4-83L (Homo sapiens, UniProt Q96LA9) | 100 |
| C#CCn1c(=O)c2c(nc(CCc3ccccc3Br)n2CC2CCC2)n(CCCCP(=O)(O)O)c1=O | human MRGPRX4-83L (Homo sapiens, UniProt Q96LA9) | 99 |
| C#CCn1c(=O)c2c(nc(CCc3ccccc3Br)n2C)n(CCCCCP(=O)(O)O)c1=O | human MRGPRX4-83L (Homo sapiens, UniProt Q96LA9) | 94 |
| C#CCn1c(=O)c2c(nc(CCc3ccccc3Br)n2CC2CCCCC2)n(CCCCP(=O)(O)O)c1=O | human MRGPRX4-83L (Homo sapiens, UniProt Q96LA9) | 95 |
| C#CCn1c(=O)c2[nH]c(CCc3ccccc3F)nc2n(CCCCP(=O)(O)O)c1=O | human MRGPRX4-83L (Homo sapiens, UniProt Q96LA9) | 98 |
| C#CCn1c(=O)c2nc(CCc3ccc(Br)cc3)[nH]c2n(CCCCP(=O)(O)O)c1=O | human MRGPRX4-83L (Homo sapiens, UniProt Q96LA9) | 70 |
| C#CCn1c(=O)c2[nH]c(CCc3ccccc3Br)nc2n(CCCCCCP(=O)(O)O)c1=O | human MRGPRX4-83L (Homo sapiens, UniProt Q96LA9) | 98 |
| C#CCn1c(=O)c2c(nc(CCc3c(Cl)cccc3Cl)n2CC)n(CCCCP(=O)(O)O)c1=O | human MRGPRX4-83L (Homo sapiens, UniProt Q96LA9) | 95 |
| C#CCn1c(=O)c2c(nc(CCc3ccccc3Br)n2CCN)n(CCCCP(=O)(O)O)c1=O | human MRGPRX4-83L (Homo sapiens, UniProt Q96LA9) | 93 |
| C#CCn1c(=O)c2c(nc(CCc3ccccc3Br)n2CC)n(CCCCCCP(=O)(O)O)c1=O | human MRGPRX4-83L (Homo sapiens, UniProt Q96LA9) | 97 |
| C#CCn1c(=O)c2c(nc(CCc3ccc(Br)cc3)n2CC2CCCC2)n(CCCCP(=O)(O)O)c1=O | human MRGPRX4-83L (Homo sapiens, UniProt Q96LA9) | 92 |
| C#CCn1c(=O)c2[nH]c(CCc3ccccc3I)nc2n(CCCCP(=O)(O)O)c1=O | human MRGPRX4-83L (Homo sapiens, UniProt Q96LA9) | 96 |
| C#CCn1c(=O)c2c(nc(CCc3ccccc3I)n2CC)n(CCCCP(=O)(O)O)c1=O | human MRGPRX4-83L (Homo sapiens, UniProt Q96LA9) | 94 |
| C#CCn1c(=O)c2c(nc(CCc3ccc(Br)cc3)n2CC)n(CCCCP(=O)(O)O)c1=O | human MRGPRX4-83L (Homo sapiens, UniProt Q96LA9) | 84 |
| C#CCn1c(=O)c2c(nc(CCc3ccccc3I)n2C(C)C)n(CCCCP(=O)(O)O)c1=O | human MRGPRX4-83L (Homo sapiens, UniProt Q96LA9) | 97 |
| C#CCn1c(=O)c2c(nc(CCc3ccccc3Br)n2C)n(CCCCCCP(=O)(O)O)c1=O | human MRGPRX4-83L (Homo sapiens, UniProt Q96LA9) | 91 |
| C#CCn1c(=O)c2c(nc(CCc3ccccc3F)n2CC)n(CCCCP(=O)(O)O)c1=O | human MRGPRX4-83L (Homo sapiens, UniProt Q96LA9) | 96 |
| C#CCn1c(=O)c2c(nc(CCc3ccccc3Br)n2C(C)C)n(CCCCP(=O)(O)O)c1=O | human MRGPRX4-83L (Homo sapiens, UniProt Q96LA9) | 116 |
| C#CCn1c(=O)c2[nH]c(CCc3ccccc3Br)nc2n(CCCCCP(=O)(O)O)c1=O | human MRGPRX4-83L (Homo sapiens, UniProt Q96LA9) | 93 |
| C#CCn1c(=O)c2c(nc(CCc3ccccc3F)n2C)n(CCCCP(=O)(O)O)c1=O | human MRGPRX4-83L (Homo sapiens, UniProt Q96LA9) | 118 |

====

Measured EC50 by item
- TESTED TARGET: MRGPRX4-83S (Homo sapiens, UniProt Q96LA9, L83S)
- TEST DETAILS: β-arrestin assay (CHO β-arrestin human MRGPRX4-83S)
- Type: cell-based
- Design: host or cells: CHO β-arrestin cells
- MEASUREMENT CONTEXT: Table 2; β-arrestin recruitment, CHO cells, MRGPRX4-83S; read-out: EC50 ± SEM
MEASURE NAME: EC50

| LINE NOTATION | RESULT |
| --- | --- |
| C#CCn1c(=O)c2[nH]c(CCc3ccccc3OC)nc2n(CCCCP(=O)(O)OCC)c1=O | 0.493 nM |
| C#CCn1c(=O)c2c(nc(CCc3ccccc3OC)n2C)n(CCCCP(=O)(OCC)OCC)c1=O | > 10000 nM |
| C#CCn1c(=O)c2[nH]c(CCc3cccc(OC)c3)nc2n(CCCCS(=O)(=O)O)c1=O | > 10000 nM |
| CCn1c(=O)c2[nH]c(CCc3cccc(OC)c3)nc2n(CCCCS(=O)(=O)O)c1=O | > 10000 nM |
| C#CCn1c(=O)c2[nH]c(CCc3cccc(Br)c3)nc2n(CCCCP(=O)(O)O)c1=O | 3.24 nM |
| C#CCn1c(=O)c2[nH]c(CCc3cccc(C(F)(F)F)c3)nc2n(CCCCP(=O)(O)O)c1=O | 20.5 nM |
| C#CCn1c(=O)c2[nH]c(CCc3cccc(OC)c3)nc2n(CCCCP(=O)(OCC)OCC)c1=O | > 10000 nM |
| C#CCn1c(=O)c2[nH]c(CCc3ccccc3Br)nc2n(CCCCP(=O)(O)O)c1=O | 3.15 nM |
